// data source = PubChem BioAssay AID1159580

Experiment: chemical genetic growth profiling, strain panel (AID 1159580);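 further: tested at 20 µM; growth read once vehicle control cultures reached saturation at 30 °C; 1 = growth at the plate median or of vehicle wells; lower values mean less growth of the strain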
Settings: S. cerevisiae deletion strains, growth OD, locus YDL005C, strain med2, active compounds read low
Among all 5,500 compounds or so, about 2,000 (36%) were called active. Not shown: some 18% with an inconclusive outcome. This is one part of the list.
Entries and their measured normalized growth follow.

[
  {
    "molecule": "CC(C(=O)O)c1ccc(C(=O)c2cccs2)cc1 (stereo unspecified)",
    "normalized growth": 0.995
  },
  {
    "molecule": "COc1cc2occ(-c3ccccc3)c(=O)c2c(OC)c1C",
    "normalized growth": 1.02
  },
  {
    "molecule": "CC[N+](CC)(CC)CCOc1cccc(OCC[N+](CC)(CC)CC)c1OCC[N+](CC)(CC)CC",
    "normalized growth": 1.03
  },
  {
    "molecule": "CC(C)NCC(O)COc1cccc2ccccc12 (stereo unspecified)",
    "normalized growth": 1.01
  },
  {
    "molecule": "COc1cc(-c2coc3cc(OC)c(OC)c(OC)c3c2=O)cc(OC)c1OC",
    "normalized growth": 0.996
  },
  {
    "molecule": "O=c1[nH]oc2c1CCNC2",
    "normalized growth": 1
  },
  {
    "molecule": "CC1(C)O[C@H]2[C@H](O)C[C@](O)(C(N)=O)C[C@H]2O1",
    "normalized growth": 1.01
  },
  {
    "molecule": "CCCC(=O)O[C@]1(C(=O)CO)CCC2[C@@H]3CCC4=CC(=O)CC[C@]4(C)C3[C@@H](O)C[C@@]21C (stereo partly specified)",
    "normalized growth": 1.01
  },
  {
    "molecule": "COc1ccc(-c2coc3cc(OC)cc(OC)c3c2=O)cc1",
    "normalized growth": 1
  },
  {
    "molecule": "COC(=O)C(C)c1ccc(C(=O)c2cccs2)cc1 (stereo unspecified)",
    "normalized growth": 1.01
  },
  {
    "molecule": "NC(N)=NS(=O)(=O)c1ccc(N)cc1",
    "normalized growth": 0.987
  }
]
